Numbers sourced from patent US20240300987A1.

Biological target: human full-length TRAP1 protein (Homo sapiens, UniProt Q12931)
Construct: containing human full-length TRAP1 protein (400 nM); hexahistidine tag followed by TEV protease cleavage site (N, cleaved yes); made in house; host or cells: E. coli BL21 (DE3)
Test: Fluorescence polarization (FP) analysis using SB-TM2 probe (client-binding site)
Conditions: Table 4; TRAP1 binding, relative to SMX of the same table
observable: Activity compared to that of SMX

COC1=C(OC)C(=O)C(CCCCCCCCCC[P+](c2ccccc2)(c2ccccc2)c2ccccc2)=C(C)C1=O [SMX, reference compound] :: 1

[1] c1ccc(CCCCCCCCCC[P+](c2ccccc2)(c2ccccc2)c2ccccc2)cc1
[2] COc1cc(C)c(CCCCCCCCCC[P+](c2ccccc2)(c2ccccc2)c2ccccc2)cc1OC
[3] CC1=C(CCCCCCCCCC[P+](c2ccccc2)(c2ccccc2)c2ccccc2)C(=O)c2ccccc2C1=O
Request: Sort low-to-high on Activity compared to that of SMX, please. List the labels, following the order given in the request.
Result: 1, 2, 3
(1: 0.14, 2: 0.22, 3: 2.45)

---

Target: human full-length TRAP1 protein (Homo sapiens, UniProt Q12931)
Construct: containing human full-length TRAP1 protein (400 nM); hexahistidine tag followed by TEV protease cleavage site (N, cleaved yes); made in house; host or cells: E. coli BL21 (DE3)
Assay: Fluorescence polarization (FP) analysis using SB-TM2 probe (client-binding site)
Details: Table 3, other synthetic compounds; FP analysis using SB-TM2
observable: IC50 (nM)

[a] COc1c(Br)c(C)c(CCCCCCCCCC[P+](c2ccccc2)(c2ccccc2)c2ccccc2)c(OC)c1OC [SB-U011]
[b] COc1c(Br)c(C)c(CCCCCCCCCC[P+](c2ccccc2)(c2ccccc2)c2ccccc2)c(OC)c1OC [SB-U005]
Request: In the pair a and b , the larger recorded IC50 belongs to which? Write down the label attached to your selection.
Result: a
(a: 684 nM, b: 385 nM)

[I] COc1c(O)c(C)c(CCCCCCCCCC[P+](c2ccccc2)(c2ccccc2)c2ccccc2)c(Br)c1OC
[II] COc1c(C)c(CCCCCCCCCC[P+](c2ccccc2)(c2ccccc2)c2ccccc2)c(Br)c(OC)c1OC
Request: In the pair I and II , the larger recorded IC50 belongs to which? Write down the label attached to your selection.
Result: I

---

Target: human full-length TRAP1 protein (Homo sapiens)
Construct: containing human full-length TRAP1 protein (400 nM); hexahistidine tag followed by TEV protease cleavage site (N, cleaved yes); made in house; host or cells: E. coli BL21 (DE3)
Sequence (Q12931 60-704): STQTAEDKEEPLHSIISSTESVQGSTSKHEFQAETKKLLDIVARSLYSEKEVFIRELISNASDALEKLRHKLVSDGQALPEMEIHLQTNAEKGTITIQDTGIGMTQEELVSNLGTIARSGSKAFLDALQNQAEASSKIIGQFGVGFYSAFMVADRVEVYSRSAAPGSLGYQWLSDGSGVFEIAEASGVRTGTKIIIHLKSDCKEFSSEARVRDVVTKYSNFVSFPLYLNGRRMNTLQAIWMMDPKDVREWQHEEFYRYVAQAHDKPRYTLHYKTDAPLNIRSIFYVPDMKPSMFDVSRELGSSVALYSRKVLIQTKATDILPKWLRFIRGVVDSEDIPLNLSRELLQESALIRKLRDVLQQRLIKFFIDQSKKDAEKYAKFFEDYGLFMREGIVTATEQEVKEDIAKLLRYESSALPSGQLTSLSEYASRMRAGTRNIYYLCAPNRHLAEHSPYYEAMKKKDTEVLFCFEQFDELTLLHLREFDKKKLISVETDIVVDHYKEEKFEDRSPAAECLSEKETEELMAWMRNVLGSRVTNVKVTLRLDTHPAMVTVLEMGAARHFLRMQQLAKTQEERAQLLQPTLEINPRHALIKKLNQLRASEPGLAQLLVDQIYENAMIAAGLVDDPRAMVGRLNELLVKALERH
Assay: Fluorescence polarization (FP) analysis using SB-TM2 probe (client-binding site)
Conditions: Table 2, antioxidant-TPP conjugates; FP analysis using SB-TM2
Description: The substance to be analyzed (at a final volume of 100 μL) was added to FP buffer ([…], 2.7 mM KCl, 4.3 mM Na2HPO4, 1.4 mM KH2PO4 (pH 7.3), 1 mM DTT, 2 mM MgCl2, and 0.1 mg/mL BSA) containing human full-length TRAP1 protein (400 nM) and SB-TM2 probe (100 nM) and then reacted at room temperature for 1 hour (96-well plate). Using a SYNERGY NEO microplate reader, FP was measured at an excitation wavelength set to 440 nm and an emission wavelength set to 500 nm.
observable: pIC50
Give only the number. pIC50 is defined as minus log10 of concentration in molar units.

Sure, the documented pIC50 for CC1=C(C)C(=O)C(CCCCCCCCCC[P+](c2ccccc2)(c2ccccc2)c2ccccc2)=CC1=O [SkQ1, reference compound] is 6.16

Sure, the documented pIC50 for COC1=C(OC)C(=O)C(CCCCCCCCCC[P+](c2ccccc2)(c2ccccc2)c2ccccc2)=C(C)C1=O [SMX, reference compound] is 6.08
